# assayNotes: Microsomal stability, mouse
# Assay type: in vitro ADME
# testParameters: mouse liver microsomes
reportedEndpoint: Microsomal stability t1/2 mouse

Look over these answered cases.
{"compound": "Br.Br.Br.CN[C@@H]1[C@H](O)[C@H](NC)[C@H]2O[C@]3(O)[C@H](O[C@@H]2[C@H]1O)O[C@H](C)C[C@H]3NC(=O)Cc1ccc(OC)cn1 [Compound 38]", "Microsomal stability t1/2 mouse": "4.8 h"}
{"compound": "Br.Br.Br.CN[C@@H]1[C@H](O)[C@H](NC)[C@H]2O[C@]3(O)[C@H](O[C@@H]2[C@H]1O)O[C@H](C)C[C@H]3NC(=O)Cc1cc(Cl)c(C)cn1 [Compound 47]", "Microsomal stability t1/2 mouse": ">50 h"}
{"compound": "Br.Br.Br.CN[C@@H]1[C@H](O)[C@H](NC)[C@H]2O[C@]3(O)[C@H](O[C@@H]2[C@H]1O)O[C@H](C)C[C@H]3NC(=O)Cc1nc2ccccc2[nH]1 [Compound 27]", "Microsomal stability t1/2 mouse": ">50 h"}
{"compound": "Br.Br.Br.CN[C@@H]1[C@H](O)[C@H](NC)[C@H]2O[C@]3(O)[C@H](O[C@@H]2[C@H]1O)O[C@H](C)C[C@H]3NC(=O)Cc1cc(Cl)c(F)cn1 [Compound 49]", "Microsomal stability t1/2 mouse": ">50 h"}
{"compound": "Br.Br.Br.CN[C@@H]1[C@H](O)[C@H](NC)[C@H]2O[C@]3(O)[C@H](O[C@@H]2[C@H]1O)O[C@H](C)C[C@H]3NC(=O)Cc1cc(Cl)c(OC)cn1 [Compound 48]", "Microsomal stability t1/2 mouse": "5.5 h"}
{"compound": "CN[C@@H]1[C@H](O)[C@H](NC)[C@H]2O[C@]3(O)[C@H](O[C@@H]2[C@H]1O)O[C@H](C)C[C@H]3NC(=O)Cc1ccc(OC(F)(F)F)cn1.Cl.Cl.Cl [Compound 41]", "Microsomal stability t1/2 mouse": "27.0 h"}
{"compound": "Br.Br.Br.CN[C@@H]1[C@H](O)[C@H](NC)[C@H]2O[C@]3(O)[C@H](O[C@@H]2[C@H]1O)O[C@H](C)C[C@H]3NC(=O)Cc1nccc(Cl)c1C [Compound 46]", "Microsomal stability t1/2 mouse": ">50 h"}

Could you now consider this next compound?
Param item = CN[C@@H]1[C@H](O)[C@H](NC)[C@H]2O[C@]3(O)[C@H](O[C@@H]2[C@H]1O)O[C@H](C)C[C@H]3NC(=O)Cc1ccc(O)cn1.Cl.Cl.Cl [Compound 39] ; retrieve measured Microsomal stability t1/2 mouse. 13.4 h

###

The following compounds are listed with their measured Ribosome IC50 values.
# assaySystem: Purified 70S M. smegmatis bacterial ribosomes (Mycolicibacterium smegmatis, UniProt A0QSG6)
# Sequence (A0QSG6 whole entry): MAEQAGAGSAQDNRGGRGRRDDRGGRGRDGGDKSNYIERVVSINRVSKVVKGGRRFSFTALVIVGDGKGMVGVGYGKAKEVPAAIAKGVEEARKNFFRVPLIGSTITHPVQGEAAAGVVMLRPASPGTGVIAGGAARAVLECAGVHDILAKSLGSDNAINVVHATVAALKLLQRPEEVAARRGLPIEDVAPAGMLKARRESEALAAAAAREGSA
# assayNotes: Ribosomal translation inhibition
# Type: biochemical
# testParameters: inhibits luciferase activity by 50%
Give the value, in units of µg/mL, as a plain number.

Param item = Br.Br.Br.CNC1C(O)C(NC)C2OC3(O)C(NC(=O)Cc4ccc(C)cn4)CC(C)OC3OC2C1O (stereo not shown) ; retrieve measured Ribosome IC50. 0.54

###

# assaySystem: Purified 70S M. smegmatis bacterial ribosomes (Mycolicibacterium smegmatis)
reportedEndpoint: IC50 (µM)
Give the value, in units of µM, as a plain number.

Param item = CN[C@@H]1[C@H](O)[C@H](NC)[C@H]2O[C@]3(O)[C@H](O[C@@H]2[C@H]1O)O[C@H](C)C[C@H]3NC(=O)Cc1ncccn1.Cl.Cl ; retrieve measured IC50. 45.5

###

The following are reported Fold change of MIC between H37Rv and Rv1258c KO (efflux) results, target or system Rv1258c efflux pump.
Give the value, in units of fold, as a plain number.

Look over these answered cases.
{"molecule": "Br.Br.Br.CNC1C(O)C(NC)C2OC3(O)C(OC(C)C[C@H]3NC(=O)Cc3nccc(Cl)c3C(C)C)OC2C1O (some centres unmarked)", "unitsSymbol": "fold", "readoutNumber": 32}
{"molecule": "Br.Br.Br.CNC1C(O)C(NC)C2OC3(O)C(NC(=O)Cc4cc(C(C)C)ccn4)CC(C)OC3OC2C1O (centres unmarked)", "unitsSymbol": "fold", "readoutNumber": 4}
{"molecule": "Br.Br.Br.CNC1C(O)C(NC)C2OC3(O)C(NC(=O)CCc4ccccn4)CC(C)OC3OC2C1O (centres unmarked)", "unitsSymbol": "fold", "readoutNumber": 8}

Param item = Br.Br.Br.CNC1C(O)C(NC)C2OC3(O)C(OC(C)C[C@H]3NC(=O)Cn3ccnc3)OC2C1O (some centres unmarked) ; retrieve measured Fold change of MIC between H37Rv and Rv1258c KO (efflux). 8

Do the same for CNC1C(O)C(NC)C2OC3(O)C(NC(=O)Cc4cc5ccccc5[nH]4)CC(C)OC3OC2C1O (centres unmarked) please 32

###

The following compounds are listed with their measured Microsomal stability t1/2 human values.
# assayNotes: Microsomal stability, human
# Type: in vitro ADME
# testParameters: human liver microsomes
Give the value, in units of h, as a plain number.

{"compound": "Br.Br.Br.CN[C@@H]1[C@H](O)[C@H](NC)[C@H]2O[C@]3(O)[C@H](O[C@@H]2[C@H]1O)O[C@H](C)C[C@H]3NC(=O)Cc1cc(Cl)c(OC)cn1 [Compound 48]", "readoutNumber": 6.3}

Param item = CN[C@@H]1[C@H](O)[C@H](NC)[C@H]2O[C@]3(O)[C@H](O[C@@H]2[C@H]1O)O[C@H](C)C[C@H]3NC(=O)Cc1ccc(O)cn1.Cl.Cl.Cl [Compound 39] ; retrieve measured Microsomal stability t1/2 human. 7.4

Do the same for CN[C@@H]1[C@H](O)[C@H](NC)[C@H]2O[C@]3(O)[C@H](O[C@@H]2[C@H]1O)O[C@H](C)C[C@H]3NC(=O)Cc1ccc(OC(F)(F)F)cn1.Cl.Cl.Cl [Compound 41] please 22.4

Do the same for Br.Br.Br.CN[C@@H]1[C@H](O)[C@H](NC)[C@H]2O[C@]3(O)[C@H](O[C@@H]2[C@H]1O)O[C@H](C)C[C@H]3NC(=O)Cc1ccc(OC)cn1 [Compound 38] please 3.4

###

# assaySystem: Purified 70S M. smegmatis bacterial ribosomes (Mycolicibacterium smegmatis, UniProt A0QSG6)
# assayNotes: Ribosomal translation inhibition
# Format: biochemical
# testParameters: inhibits luciferase activity by 50%
reportedEndpoint: Ribosome IC50 (µg/mL)
Give the value, in units of µg/mL, as a plain number.

Look over these answered cases.
{"compound": "Br.Br.Br.CNC1C(O)C(NC)C2OC3(O)C(NC(=O)CCc4ccccn4)CC(C)OC3OC2C1O (centres unmarked) [Compound 12]", "unitsSymbol": "µg/mL", "Ribosome IC50": 3.80}
{"compound": "Br.Br.Br.CNC1C(O)C(NC)C2OC3(O)C(NC(=O)Cc4nccs4)CC(C)OC3OC2C1O (centres unmarked) [Compound 19]", "unitsSymbol": "µg/mL", "Ribosome IC50": 0.72}
{"compound": "CN[C@@H]1[C@H](O)[C@H](NC)[C@H]2O[C@]3(O)[C@H](O[C@@H]2[C@H]1O)O[C@H](C)C[C@H]3NC(=O)Cc1ncc[nH]1.Cl.Cl.Cl [Compound 21]", "unitsSymbol": "µg/mL", "Ribosome IC50": 0.56}
{"compound": "Br.Br.Br.CNC1C(O)C(NC)C2OC3(O)C(NC(=O)Cc4cc(C)ccn4)CC(C)OC3OC2C1O (centres unmarked) [Compound 30]", "unitsSymbol": "µg/mL", "Ribosome IC50": 0.47}
{"compound": "CNC1C(O)C(NC)C2OC3(O)C(NC(=O)Nc4ccccn4)CC(C)OC3OC2C1O.Cl.Cl (centres unmarked) [Compound 10]", "unitsSymbol": "µg/mL", "Ribosome IC50": 2.24}
{"compound": "Br.Br.Br.CNC1C(O)C(NC)C2OC3(O)C(NC(=O)Cc4nc5ccccc5s4)CC(C)OC3OC2C1O (centres unmarked) [Compound 25]", "unitsSymbol": "µg/mL", "Ribosome IC50": 1.09}
{"compound": "Br.Br.Br.CN[C@@H]1[C@H](O)[C@H](NC)[C@H]2O[C@]3(O)[C@H](O[C@@H]2[C@H]1O)O[C@H](C)C[C@H]3NC(=O)Cc1cc(Cl)c(OC)cn1 [Compound 48]", "unitsSymbol": "µg/mL", "Ribosome IC50": 0.42}
{"compound": "Br.Br.Br.CNC1C(O)C(NC)C2OC3(O)C(OC(C)C[C@H]3NC(=O)Cc3nc4ccccc4n3C)OC2C1O (some centres unmarked) [Compound 26]", "unitsSymbol": "µg/mL", "Ribosome IC50": 0.26}

Param item = Br.Br.Br.CN[C@@H]1[C@H](O)[C@H](NC)[C@H]2O[C@]3(O)[C@H](O[C@@H]2[C@H]1O)O[C@H](C)C[C@H]3NC(=O)Cc1cc(Cl)c(F)cn1 [Compound 49] ; retrieve measured Ribosome IC50. 0.22

Do the same for CN[C@@H]1[C@H](O)[C@H](NC)[C@H]2O[C@]3(O)[C@H](O[C@@H]2[C@H]1O)O[C@H](C)C[C@H]3NC(=O)Cc1ncccn1.Cl.Cl [Compound 13] please 45.50

Do the same for Br.Br.Br.CNC1C(O)C(NC)C2OC3(O)C(NC(=O)Cc4nc5ccccc5o4)CC(C)OC3OC2C1O (centres unmarked) [Compound 24] please 0.61

Do the same for Br.Br.Br.CN[C@@H]1[C@H](O)[C@H](NC)[C@H]2O[C@]3(O)[C@H](O[C@@H]2[C@H]1O)O[C@H](C)C[C@H]3NC(=O)Cc1ccc(OC)cn1 [Compound 38] please 0.39
